# tested-on: Cytochrome P450 1A2 (Homo sapiens) (UniProt P05177)
# Sequence (P05177 whole entry, looked up): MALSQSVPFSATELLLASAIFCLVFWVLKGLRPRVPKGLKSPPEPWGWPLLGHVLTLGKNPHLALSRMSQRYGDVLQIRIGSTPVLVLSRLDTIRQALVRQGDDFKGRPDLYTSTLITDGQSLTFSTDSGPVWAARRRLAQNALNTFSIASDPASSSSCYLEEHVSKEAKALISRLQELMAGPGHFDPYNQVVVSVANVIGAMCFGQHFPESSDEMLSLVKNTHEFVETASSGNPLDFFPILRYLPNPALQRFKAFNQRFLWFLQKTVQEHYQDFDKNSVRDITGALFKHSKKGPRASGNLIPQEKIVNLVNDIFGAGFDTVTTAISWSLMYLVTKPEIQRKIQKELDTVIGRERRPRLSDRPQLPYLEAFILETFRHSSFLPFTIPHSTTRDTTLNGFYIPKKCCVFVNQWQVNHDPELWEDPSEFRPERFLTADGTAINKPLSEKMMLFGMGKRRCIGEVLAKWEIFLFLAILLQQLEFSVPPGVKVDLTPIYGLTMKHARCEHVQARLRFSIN
# measurement-description: Cytochrome panel assay with activity outcomes; for activity, negative = inhibition: % is set by controls: 0 for no effect and ±100 for the full control effect
# run-conditions: recombinant CYP, pro-luciferin dealkylation, luminescence, p450-cyp1a2; series mostly up to 57.1 µM
Among all 16,000 compounds or so, about 5,700 (36%) were called active. Another 24% or so got no clear call; they are omitted. Some of the results follow.
Quick reference: activity, negative = inhibition of the listed items.

Worked examples follow.
>  <chem-smiles>
Cc1cc2c(nc1C)CCCN2CC(O)CN1CCCc2nc(C)c(C)cc21

>  <tested-on>
Cytochrome P450 1A2 (Homo sapiens) (UniProt P05177)

>  <assay-readout>
activity, negative = inhibition

>  <test-value>
-4.54% [at 11.4 µM] (inactive)

$$$$
>  <chem-smiles>
O=C1C[C@@H](O)[C@@H](O)[C@@H]2[C@H]3C(=O)N(c4ccc(F)cc4F)C(=O)[C@@H]3CC[C@@H]12

>  <tested-on>
Cytochrome P450 1A2 (Homo sapiens) (UniProt P05177)

>  <assay-readout>
activity, negative = inhibition

>  <test-value>
-7.03% [at 11.4 µM] (inactive)

$$$$
>  <chem-smiles>
O=C(O)c1ccc(C(=O)c2ccccc2C(=O)O)cc1C(=O)O

>  <tested-on>
Cytochrome P450 1A2 (Homo sapiens) (UniProt P05177)

>  <assay-readout>
activity, negative = inhibition

>  <test-value>
2.76% [at 11.4 µM] (inactive)

$$$$
>  <chem-smiles>
CCCNC(=O)OC[C@@H]1O[C@H](CCO/N=C\[C@@H](C)[C@H](OCc2ccccc2)C(C)C)C=C[C@@H]1Oc1ccc(OC)cc1

>  <tested-on>
Cytochrome P450 1A2 (Homo sapiens) (UniProt P05177)

>  <assay-readout>
activity, negative = inhibition

>  <test-value>
-5.94% [at 11.4 µM] (inactive)

$$$$
>  <chem-smiles>
CCc1cc2c(nc1CC)CCN(CC/C(C)=N/O[C@@H](C)c1cn([C@@H]3COC[C@@H]3O)nn1)C2

>  <tested-on>
Cytochrome P450 1A2 (Homo sapiens) (UniProt P05177)

>  <assay-readout>
activity, negative = inhibition

>  <test-value>
-1.13% [at 11.4 µM] (inactive)

$$$$
>  <chem-smiles>
NC[C@H]1O[C@H](n2cnc3c(N)ncnc32)C[C@@H]1O

>  <tested-on>
Cytochrome P450 1A2 (Homo sapiens) (UniProt P05177)

>  <assay-readout>
activity, negative = inhibition

>  <test-value>
-9.51% [at 11.4 µM] (inactive)

$$$$

Reported activity, negative = inhibition ( COc1ccc(-c2cc([C@H](O)[C@@H]3CCCCN3)c3ccccc3n2)cc1 ) = -11% [at 2.29 µM] (inactive)

Reported activity, negative = inhibition ( N#CC(CC(=O)O)=C(c1ccccc1)c1ccccc1 ) = -14.5% [at 2.29 µM] (inactive)

Reported activity, negative = inhibition ( CO[C@@H]1COC(=O)[C@@H](CCSC)NC(=O)C/C=C\[C@@H](C)COC(=O)[C@H](C)NC(=O)C/C=C\[C@H]1C ) = -5.08% [at 11.4 µM] (inactive)

* * *

# tested-on: Cytochrome P450 1A2 (Homo sapiens) (UniProt P05177)
# measurement-description: Cytochrome panel assay with activity outcomes
# run-conditions: recombinant CYP, pro-luciferin dealkylation, luminescence, p450-cyp1a2; series mostly up to 57.1 µM
The whole screen tested about 16,000 compounds, of which about 5,700 (36%) were called active. Inconclusive results (about 24%) are left out. The list shows a part of the results.
assay-readout: AC50

Worked examples follow.
>  <molecule>
C[C@]12CC3CC(N)(C1)C[C@@](C)(C3)C2

>  <tested-on>
Cytochrome P450 1A2 (Homo sapiens) (UniProt P05177)

>  <assay-readout>
AC50

>  <test-value>
inactive

$$$$
>  <molecule>
COc1ncc2nc(-c3cn(C)c4ccccc34)c(=O)n(C)c2n1

>  <tested-on>
Cytochrome P450 1A2 (Homo sapiens) (UniProt P05177)

>  <assay-readout>
AC50

>  <test-value>
1 µM (active)

$$$$
>  <molecule>
CN1CCN(c2ncc3nc(-c4cn(C)c5ccccc45)c(=O)n(CCC#N)c3n2)CC1

>  <tested-on>
Cytochrome P450 1A2 (Homo sapiens) (UniProt P05177)

>  <assay-readout>
AC50

>  <test-value>
15.8 µM (active)

$$$$
>  <molecule>
O=C1C2=C(Nc3cc([N+](=O)[O-])ccc3N2)O[C@@H]1c1c[nH]c2ccc(COc3ccccc3)cc12

>  <tested-on>
Cytochrome P450 1A2 (Homo sapiens) (UniProt P05177)

>  <assay-readout>
AC50

>  <test-value>
2.51 µM (active)

$$$$
>  <molecule>
FC(F)(F)c1cnc(/C=C/Nc2ccccc2Cl)c(Cl)c1

>  <tested-on>
Cytochrome P450 1A2 (Homo sapiens) (UniProt P05177)

>  <assay-readout>
AC50

>  <test-value>
1.41 µM (active)

$$$$
>  <molecule>
COc1ccc(Oc2ncc3nc(-c4cn(C)c5ccccc45)c(=O)n(C)c3n2)cc1

>  <tested-on>
Cytochrome P450 1A2 (Homo sapiens) (UniProt P05177)

>  <assay-readout>
AC50

>  <test-value>
inactive

$$$$
>  <molecule>
COc1ncc2nc(-c3cn(C)c4ccccc34)c(=O)n(CCC#N)c2n1

>  <tested-on>
Cytochrome P450 1A2 (Homo sapiens) (UniProt P05177)

>  <assay-readout>
AC50

>  <test-value>
5.01 µM (active)

$$$$
>  <molecule>
Cc1cc(C(C)(C)C)c(O)c(C)c1CC1=NCCN1

>  <tested-on>
Cytochrome P450 1A2 (Homo sapiens) (UniProt P05177)

>  <assay-readout>
AC50

>  <test-value>
inactive

$$$$

Reported AC50 ( C/C(=N/NS(=O)(=O)c1ccc(C)cc1)c1cccc(NC(=O)c2cccc(Cl)c2)c1 ) = 14.1 µM (active)

Reported AC50 ( COc1ccc(NC2=NC(=S)N(c3ccc(C)cc3)C23CCCCC3)cc1 ) = inactive

Reported AC50 ( Cc1ccc(S(=O)(=O)Nc2nc(C)c(NC(=O)Nc3ccc(Cl)cc3Cl)s2)cc1 ) = inactive

Reported AC50 ( CC(C)(C)c1nnc(NC(=O)NS(=O)(=O)c2ccccc2)s1 ) = inactive

Reported AC50 ( COc1ccc(C2CC(=O)c3cnc(Nc4cc(C)cc(C)c4)nc3C2)cc1 (stereo unspecified) ) = 14.1 µM (active)

Reported AC50 ( CCC(=O)Nc1ccc(/C(C)=N\NS(=O)(=O)c2ccc(C)cc2)cc1 ) = 25.1 µM (active)

Reported AC50 ( CC(C)(C)NC(=O)C(=O)NNC(=O)c1ccccc1 ) = inactive

Reported AC50 ( COc1ccc(C(=O)Nc2cccc(/C(C)=N/NC(=O)c3ccc([N+](=O)[O-])cc3)c2)cc1OC ) = inactive

Reported AC50 ( Cc1ccc(S(=O)(=O)n2ccc(-c3cccc(OCc4c(F)cccc4Cl)c3)n2)cc1 ) = inactive

Reported AC50 ( C/C(=N\NC(=O)c1cccc(Cl)c1)c1cccc(NC(=O)C(C)C)c1 ) = 5.01 µM (active)

Reported AC50 ( Cc1ccc(C(=O)NC(=S)NCC2CCCO2)cc1 (stereo unspecified) ) = 7.08 µM (active)

Reported AC50 ( COc1ccc(CNc2ncnc3ccc(-c4ccccc4C#N)cc23)c(OC)c1 ) = 6.31 µM (active)

Reported AC50 ( Cc1cc2c(cc1C)NC1=C(N2)O[C@H](c2c[nH]c3ccc(COc4ccccc4)cc23)C1=O ) = 2.51 µM (active)

* * *

# tested-on: Cytochrome P450 1A2 (Homo sapiens) (UniProt P05177)
# measurement-description: Cytochrome panel assay with activity outcomes
# run-conditions: recombinant CYP, pro-luciferin dealkylation, luminescence, p450-cyp1a2; series mostly up to 57.1 µM
Screen size: about 16,000 compounds; about 5,700 (36%) were called active. About 24% were inconclusive and are not listed. Calls come from the whole dose curve; as a rule, active = well fitted curve in the direction sought with a large enough effect; inconclusive = small, poorly fitted or top-dose-only effect, or effect the other way; inactive = no such curve, though single readings can be large or run the other way. Some of the results follow.
One label from this list, please: 1 = active, 0 = inactive

Examples from the recorded data:
>  <chem-smiles>
CCCCOc1ccc(CNn2c(C)nc3ccccc3c2=O)cc1

>  <category>
1

$$$$
>  <chem-smiles>
O=C(COc1cccc2ccccc12)NNC(=O)c1cccs1

>  <category>
1

$$$$
>  <chem-smiles>
CCCc1cc(=O)oc2c(CN3CCOCC3)c(O)ccc12

>  <category>
1

$$$$
>  <chem-smiles>
O=c1oc2c(CN3CCOCC3)c(O)ccc2c2ccccc12

>  <category>
1

$$$$
>  <chem-smiles>
COc1ccc(-c2c(C)oc3c(CN4CCN(CCO)CC4)c(O)ccc3c2=O)cc1OC

>  <category>
0

$$$$
>  <chem-smiles>
COc1ccc(CNn2c(C)nc3ccccc3c2=O)cc1

>  <category>
1

$$$$
>  <chem-smiles>
Cn1c2c(c(=O)n(C)c1=O)CN(CCN1CCNCC1)CN2

>  <category>
0

$$$$
>  <chem-smiles>
COc1ccccc1-c1c(C)oc2c(CN3CCN(CCO)CC3)c(O)ccc2c1=O

>  <category>
0

$$$$
>  <chem-smiles>
COC(=O)CSc1cc(C(F)(F)F)nc(-c2ccccn2)n1

>  <category>
1

$$$$
>  <chem-smiles>
FC(F)(F)c1cc(Sc2ccccc2)nc(-c2ccccn2)n1

>  <category>
1

$$$$

In: Call for entry O=c1cc(CN2CCN(c3ccc(F)cc3)CC2)c2cc3c(cc2o1)CCCC3 :
Out: 0
